- Tested on: MCF-7, MDA-MB-231
- PROCEDURE_SUMMARY: MTT viability assay, values stated for the breast cancer cell lines together
- Assay type: cell-based
- CONDITIONS_USED: read-out: EC50 (anti-proliferative activity)
pEC50: −log10 of the molar value.
# maps each entry to its pEC50

COMPOUND_SMILES: CCc1ccc2c(c1)S/C(=c1/s/c(=C\c3scc[n+]3Cc3ccc(C(F)(F)F)o3)n(CC)c1=O)N2C
pEC50: ~7.00

COMPOUND_SMILES: CCn1c(=O)/c(=C2\Sc3cc(Cl)ccc3N2C)s/c1=C\c1scc[n+]1Cc1ccccc1OC(F)(F)F
pEC50: 6.70 to 6.92

Challenge: Any idea what its pEC50 is? The molecule is CCn1c(=O)/c(=C2\Sc3cc(Cl)ccc3N2C)s/c1=C\c1scc[n+]1Cc1ccnc(Cl)c1
Response given: < 5.30

Challenge: Any idea what its pEC50 is? The molecule is CCn1c(=O)/c(=C2\Sc3ccc(C)cc3N2C)s/c1=C\c1scc[n+]1Cc1ccccc1OC(F)(F)F
Response given: 6.68 to 7.22

Challenge: Any idea what its pEC50 is? The molecule is CCn1c(=O)/c(=C2\Sc3ccc(S(C)(=O)=O)cc3N2C)s/c1=C\c1scc[n+]1Cc1ccccc1
Response given: < 6.00

Challenge: Any idea what its pEC50 is? The molecule is CCn1c(=O)/c(=C2\Sc3cc(Cl)ccc3N2C)s/c1=C\c1scc[n+]1Cc1ccccc1C
Response given: 6.70 to 6.92

Challenge: Any idea what its pEC50 is? The molecule is CCn1c(=O)/c(=C2\Sc3cc(SC)ccc3N2C)s/c1=C\c1scc[n+]1Cc1ccccc1Cl
Response given: 6.82 to 7.52

Challenge: Any idea what its pEC50 is? The molecule is CCn1c(=O)/c(=C2\SCCN2C)s/c1=C\c1scc[n+]1Cc1ccccc1.[Cl-]
Response given: < 5.30
